experiment: Toxicity (LC50, therapeutic ratio) toward mussel plantigrade larvae; format: in vivo; conditions: Mytilus galloprovincialis, in vivo, other: larvae immersed in test media in filtered seawater; median lethal dose, mussel plantigrades
Quantity name: LC50 at 15 h

{"Compound": "COc1cc(CN2CCc3c(N)cccc3C2)c2c(=O)c3ccccc3oc2c1OC [Compound 21]", "Value measured": "> 100 µM"}

Would you kindly share the measured LC50 at 15 h for COc1cc(CN2CCN(CCO)CC2)c2c(=O)c3ccccc3oc2c1OC [Compound 19] ?
> 100 µM

Try this compound too: COc1cc(CN2CCCCC2)c2c(=O)c3ccccc3oc2c1OC [Compound 23]
> 100 µM

Try this compound too: COc1cc(CNCCN2CCOCC2)c2c(=O)c3ccccc3oc2c1OC [Compound 16]
> 100 µM

Try this compound too: COc1ccc2c(=O)c3c(CCl)cc(OC)c(OC)c3oc2c1 [Compound 4]
> 100 µM

Try this compound too: COc1cc(CO)c2c(=O)c3ccccc3oc2c1OC [Compound 8]
> 100 µM

====

Recorded EC50 values for a group of molecules are listed next.
system: Mytilus galloprovincialis plantigrade larvae; experiment: Mytilus galloprovincialis larvae anti-settlement bioassay; format: in vivo; details: Mytilus galloprovincialis, 15 h, concentration that inhibited 50% of larval settlement of mussel plantigrades; 15 h exposure; read-out: EC50 (μg.mL^−1)
Please reply with the bare figure in µg/mL and do not write the unit itself.

Some molecules with recorded EC50:
{"Molecule": "COc1ccc2c(=O)c3c(CCl)cc(OC)c(OC)c3oc2c1 [Compound 4]", "Uom": "µg/mL", "EC50": 5.41}
{"Molecule": "COc1cc(CNCCN2CCOCC2)c2c(=O)c3ccccc3oc2c1OC [Compound 16]", "Uom": "µg/mL", "EC50": 6.98}
{"Molecule": "COc1cc(CN2CCCCC2)c2c(=O)c3ccccc3oc2c1OC [Compound 23]", "Uom": "µg/mL", "EC50": 1.26}
{"Molecule": "COc1cc(CN2CCc3c(N)cccc3C2)c2c(=O)c3ccccc3oc2c1OC [Compound 21]", "Uom": "µg/mL", "EC50": 3.03}
{"Molecule": "COc1cc(CN2CCN(CCO)CC2)c2c(=O)c3ccccc3oc2c1OC [Compound 19]", "Uom": "µg/mL", "EC50": 21.5}

Would you kindly share the measured EC50 for COc1cc(CO)c2c(=O)c3ccccc3oc2c1OC [Compound 8] ?
6.25

====

Recorded LC50 at 15 h values for a group of compounds are listed next.
assay: Toxicity (LC50, therapeutic ratio) toward mussel plantigrade larvae; type: in vivo; settings: Mytilus galloprovincialis, in vivo; median lethal dose, mussel plantigrades

{"Compound structure": "COc1cc(C)c2c(=O)c3ccccc3oc2c1OC", "LC50 at 15 h": "> 100 µM"}
{"Compound structure": "COc1ccc2c(=O)c3c(C)cc(OC)c(OC)c3oc2c1", "LC50 at 15 h": "> 100 µM"}

Would you kindly share the measured LC50 at 15 h for "COc1cc(C(Br)Br)c2c(=O)c3ccccc3oc2c1OC" ?
> 100 µM
